The measurements presented in this section are drawn from ChEMBL document CHEMBL3045005.

- Tested on: Aspergillus parasiticus
- Procedure details: Fungicidal activity against Aspergillus parasiticus CECT 2681 assessed as inhibition of radial mycelial growth at 100 ug/mL after 4 days
- Assay type: functional
- Study conditions: CECT 2681, 96 h, read-out: GI
Each entry below carries its reported inhibition of growth at 100 µg/mL.
Recorded metric: inhibition of growth at 100 µg/mL (%)

>>> value_measured("CCCCCCCC(=O)CC(=O)N1CCCC1=O")
21.3
>>> value_measured("CCCCCCCC(=C1C(=O)OC(C)(C)OC1=O)N1CC=CC1")
39.3
>>> value_measured("CC(C(=O)C(C)(C)C(=O)N1CCCC1)c1cccc(Oc2ccccc2)c1 (stereo not drawn)")
37.9
>>> value_measured("CCCCCCCC(=O)N1CC=CC1")
19.3
>>> value_measured("CC(C(=O)C(C)c1cccc(Oc2ccccc2)c1)C(=O)N1CCCC1 (stereo not drawn)")
27.9
>>> value_measured("CCCCCCCC(O)C(C)C(=O)N1CCCC1=O (stereo not drawn)")
31.5
>>> value_measured("CC1=C(C2CC2)OC2CCCN2C1=O (stereo not drawn)")
11.3
>>> value_measured("CCCCCCCC(=O)C(C)C(=O)N1CCCC1=O (stereo not drawn)")
31.7

###

- System: Alternaria alternata
- Procedure details: Fungicidal activity against Alternaria tenuis CECT 2662 assessed as inhibition of radial mycelial growth at 100 ug/mL after 4 days
- Format: functional
- Study conditions: CECT 2662, 96 h, read-out: GI
Quick rule for you: inhibition of growth at 100 µg/mL at 40% or higher means t, lower means f.

>>> group_label("CC(C(=O)C(C)(C)C(=O)N1CCCC1)c1cccc(Oc2ccccc2)c1 (stereo not drawn)")
"t"
>>> group_label("CCCCCCCC(O)C(C)C(=O)N1CCCC1=O (stereo not drawn)")
"f"
>>> group_label("CCCCCCCC(=O)N1CC=CC1")
"t"
>>> group_label("CC1=C(C2CC2)OC2CCCN2C1=O (stereo not drawn)")
"f"
>>> group_label("CCCCCCCC(=O)C(C)C(=O)N1CCCC1=O (stereo not drawn)")
"t"
>>> group_label("CCCCCCCC(=C1C(=O)OC(C)(C)OC1=O)N1CC=CC1")
"f"
>>> group_label("CCCCCCCC(=O)CC(=O)N1CCCC1=O")
"f"

###

Each entry below carries its reported inhibition of growth at 100 µg/mL.
- Test system: Colletotrichum gloeosporioides
- Procedure details: Fungicidal activity against Colletotrichum gloeosporioides CECT 2859 assessed as inhibition of radial mycelial growth at 100 ug/mL after 4 days
- Type: functional
- Study conditions: CECT 2859, 96 h, read-out: GI
Recorded metric: inhibition of growth at 100 µg/mL (%)

>>> value_measured("CCCCCCCC(O)C(C)C(=O)N1CCCC1=O (stereo not drawn)")
36.6
>>> value_measured("CCCCCCCC(=O)C(C)C(=O)N1CCCC1=O (stereo not drawn)")
35.6
>>> value_measured("CC(C(=O)C(C)(C)C(=O)N1CCCC1)c1cccc(Oc2ccccc2)c1 (stereo not drawn)")
62.2
>>> value_measured("CC(C(=O)C(C)c1cccc(Oc2ccccc2)c1)C(=O)N1CCCC1 (stereo not drawn)")
41.4
>>> value_measured("CC1=C(C2CC2)OC2CCCN2C1=O (stereo not drawn)")
11.8
>>> value_measured("CCCCCCCC(=O)CC(=O)N1CCCC1=O")
34.5
>>> value_measured("CCCCCCCC(=C1C(=O)OC(C)(C)OC1=O)N1CC=CC1")
29.9
>>> value_measured("CCCCCCCC(=O)N1CC=CC1")
35.4

###

- Tested on: Verticillium dahliae
- Procedure details: Fungicidal activity against Verticillium dahliae CCM 269 assessed as inhibition of radial mycelial growth at 100 ug/mL after 6 days
- Type: functional
- Study conditions: CCM 269, 144 h, read-out: GI
Quick rule for you: inhibition of growth at 100 µg/mL at 50% or higher means class 1, lower means class 0.

>>> group_label("CC1=C(C2CC2)OC2CCCN2C1=O (stereo not drawn)")
"class 1"
>>> group_label("CC(C(=O)C(C)c1cccc(Oc2ccccc2)c1)C(=O)N1CCCC1 (stereo not drawn)")
"class 0"
>>> group_label("CC(C(=O)C(C)(C)C(=O)N1CCCC1)c1cccc(Oc2ccccc2)c1 (stereo not drawn)")
"class 0"
>>> group_label("CCCCCCCC(=C1C(=O)OC(C)(C)OC1=O)N1CC=CC1")
"class 0"
>>> group_label("CCCCCCCC(=O)N1CC=CC1")
"class 0"
>>> group_label("CCCCCCCC(O)C(C)C(=O)N1CCCC1=O (stereo not drawn)")
"class 0"
>>> group_label("CCCCCCCC(=O)C(C)C(=O)N1CCCC1=O (stereo not drawn)")
"class 1"
